Recorded pIC50 values for a group of compounds are listed next.
# Experimental System: TYK2 (Homo sapiens)
# Sequence (P29597 whole entry): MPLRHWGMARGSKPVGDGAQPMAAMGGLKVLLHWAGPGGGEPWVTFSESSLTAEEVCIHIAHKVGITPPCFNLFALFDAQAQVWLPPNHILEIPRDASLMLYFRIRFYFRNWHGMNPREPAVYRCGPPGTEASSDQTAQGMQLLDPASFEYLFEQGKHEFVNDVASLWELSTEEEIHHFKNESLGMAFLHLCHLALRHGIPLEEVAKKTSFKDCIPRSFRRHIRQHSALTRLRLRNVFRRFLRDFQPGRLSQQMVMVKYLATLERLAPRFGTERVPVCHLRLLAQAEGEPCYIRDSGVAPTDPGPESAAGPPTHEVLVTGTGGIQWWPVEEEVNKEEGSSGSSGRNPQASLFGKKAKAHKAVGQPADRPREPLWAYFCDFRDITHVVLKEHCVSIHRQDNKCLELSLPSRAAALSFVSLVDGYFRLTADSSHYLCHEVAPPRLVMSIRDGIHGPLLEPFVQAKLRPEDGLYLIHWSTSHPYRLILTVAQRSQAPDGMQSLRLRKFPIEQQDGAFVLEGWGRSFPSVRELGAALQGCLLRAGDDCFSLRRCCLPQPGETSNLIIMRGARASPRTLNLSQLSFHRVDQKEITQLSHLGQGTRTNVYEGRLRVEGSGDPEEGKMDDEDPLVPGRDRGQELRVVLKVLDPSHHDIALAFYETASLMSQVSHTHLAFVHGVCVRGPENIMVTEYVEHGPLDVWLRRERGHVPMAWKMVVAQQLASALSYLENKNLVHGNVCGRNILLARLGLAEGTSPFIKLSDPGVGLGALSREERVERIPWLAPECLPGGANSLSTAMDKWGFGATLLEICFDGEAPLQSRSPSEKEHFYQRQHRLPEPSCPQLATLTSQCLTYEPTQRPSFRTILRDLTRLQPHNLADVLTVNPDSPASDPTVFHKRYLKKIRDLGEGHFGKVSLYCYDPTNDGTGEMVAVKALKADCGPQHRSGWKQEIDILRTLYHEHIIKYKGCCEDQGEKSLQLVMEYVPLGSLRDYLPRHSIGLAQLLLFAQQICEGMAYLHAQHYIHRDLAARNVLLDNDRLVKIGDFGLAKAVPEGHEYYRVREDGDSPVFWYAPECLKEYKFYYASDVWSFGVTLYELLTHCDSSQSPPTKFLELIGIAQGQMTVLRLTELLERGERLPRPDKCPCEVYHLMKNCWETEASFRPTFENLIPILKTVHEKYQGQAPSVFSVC
# Test Protocol: TYK2 kinase inhibition (Table A1)
# Format: biochemical
Structures can show the parent of a compound that is named as a salt.
pIC50 here: minus log base 10 of the concentration, concentration in moles per litre.

INSERT INTO measurements (compound, observed) VALUES
  ('O=C(CC1CCN(c2cnccn2)CC1)Nc1ccc2cc1CCc1cncc(c1)Nc1ncc(Cl)c(n1)N2 [Example A171, tris(trifluoroacetate)]', 6.52);

Sample CC(C)(C)C(=O)N1CCC(CC(=O)Nc2ccc3cc2CCc2cccc(c2)Nc2ncc(Cl)c(n2)N3)CC1 [Example A88, trifluoroacetate] ; pIC50 observed: 7.33

Sample COc1ccc2cc1Nc1nc(ncc1Cl)Nc1cccc(c1)CC2 [Example A25, trifluoroacetate] ; pIC50 observed: 6.91

Sample O=C(CNC(=O)Nc1ccccc1)Nc1ccc2cc1CCc1cccc(c1)Nc1ncc(Cl)c(n1)N2 [Example A66, trifluoroacetate] ; pIC50 observed: 7.68

Sample O=C(CN1CCN(c2nc3cccnc3o2)CC1)Nc1ccc2cc1CCc1cncc(c1)Nc1ncc(Cl)c(n1)N2 [Example A118, tris(trifluoroacetate)] ; pIC50 observed: 7.70

Sample O=C(Cc1ccncc1)Nc1ccc2cc1CCc1cccc(c1)Nc1ncc(Cl)c(n1)N2 [Example C40, bis(trifluoroacetate)] ; pIC50 observed: 6.54
